In this section, each of the compounds is paired with its reported Emax.
biological target: Muscarinic acetylcholine receptor M5 (Homo sapiens) (UniProt P08912); assay: Positive allosteric modulation of muscarinic M5 receptor expressed in CHO cells assessed as effect on acetylcholine-induced intracellular calcium mobilization after 1 hr by FLIPR assay relative to acetylcholine; format: functional, cell-based
Sequence (P08912 whole entry): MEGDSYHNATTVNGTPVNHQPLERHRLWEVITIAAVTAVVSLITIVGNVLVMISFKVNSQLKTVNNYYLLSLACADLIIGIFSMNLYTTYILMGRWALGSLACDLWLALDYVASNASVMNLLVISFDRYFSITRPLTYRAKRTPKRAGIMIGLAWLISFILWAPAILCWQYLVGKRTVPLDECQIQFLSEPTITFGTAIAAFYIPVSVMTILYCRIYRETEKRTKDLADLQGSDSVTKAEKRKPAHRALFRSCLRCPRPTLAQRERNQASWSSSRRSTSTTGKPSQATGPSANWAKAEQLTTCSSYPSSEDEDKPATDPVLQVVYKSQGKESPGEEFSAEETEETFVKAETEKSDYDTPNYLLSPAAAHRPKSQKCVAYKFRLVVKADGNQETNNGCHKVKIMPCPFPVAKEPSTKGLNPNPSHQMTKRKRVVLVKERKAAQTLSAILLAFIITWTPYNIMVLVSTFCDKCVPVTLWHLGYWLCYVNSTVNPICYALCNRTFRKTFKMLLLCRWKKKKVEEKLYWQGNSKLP
measurement_type: Emax (%)

# line_notation, numeric_readout
rows = [
    ("O=C1C(=O)N(Cc2ccc(Oc3ccccn3)cc2)c2ccc(OC(F)(F)F)cc21", 46),
    ("O=C1C(=O)N(Cc2ccc(-c3ccccc3)cn2)c2ccc(OC(F)(F)F)cc21", 47),
    ("O=C1C(=O)N(Cc2ccc(Oc3nccs3)cc2)c2ccc(OC(F)(F)F)cc21", 58),
    ("O=C1C(=O)N(Cc2ccc(-c3ccncc3)nc2)c2ccc(OC(F)(F)F)cc21", 50),
    ("COc1cccc(Oc2ccc(CN3C(=O)C(=O)c4cc(OC(F)(F)F)ccc43)cc2)n1", 51),
    ("O=C1C(=O)N(Cc2ccc(-c3ccncc3)cc2)c2ccc(OC(F)(F)F)cc21", 60),
    ("O=C1C(=O)N(Cc2ccc(-c3ccccc3)cc2F)c2ccc(OC(F)(F)F)cc21", 63),
    ("O=C1C(=O)N(Cc2ccc(-c3cccnc3)nc2)c2ccc(OC(F)(F)F)cc21", 53),
    ("O=C1C(=O)N(Cc2ccc3c(c2)OCO3)c2ccc(OC(F)(F)F)cc21", 90),
    ("O=C1C(=O)N(Cc2ccc(Cl)nc2)c2ccc(OC(F)(F)F)cc21", 80),
]

###

target: Muscarinic acetylcholine receptor M5 (Homo sapiens, UniProt P08912); assay: Positive allosteric modulation of muscarinic M5 receptor expressed in CHO cells assessed as effect on acetylcholine-induced intracellular calcium mobilization after 1 hr by FLIPR assay
Sequence (P08912 whole entry): as above
pEC50: −log10 of the molar value.

# line_notation, readout_qualifier, pEC50
rows = [
    ("O=C1C(=O)N(Cc2ccc3c(c2)OCO3)c2ccc(OC(F)(F)F)cc21", "=", 5.49),
    ("O=C1C(=O)N(Cc2ccc(Cl)nc2)c2ccc(OC(F)(F)F)cc21", "=", 5.62),
    ("O=C1C(=O)N(Cc2c(F)cc(-c3ccccc3)cc2F)c2ccc(OC(F)(F)F)cc21", "<", 4.52),
    ("O=C1C(=O)N(Cc2ccc(-c3cccnc3)cc2)c2ccc(OC(F)(F)F)cc21", "=", 5.80),
    ("O=C1C(=O)N(Cc2ccc(-c3cncnc3)cc2)c2ccc(OC(F)(F)F)cc21", "=", 5.68),
    ("O=C1C(=O)N(Cc2ccc(Br)cc2)c2ccccc21", "=", 5.34),
    ("O=C1C(=O)N(Cc2ccc(-c3ccccc3)nc2)c2ccc(OC(F)(F)F)cc21", "=", 5.42),
    ("COc1cccc(Oc2ccc(CN3C(=O)C(=O)c4cc(OC(F)(F)F)ccc43)cc2)n1", "=", 5.66),
    ("O=C1C(=O)N(Cc2ccc(-c3ccncc3)cn2)c2ccc(OC(F)(F)F)cc21", "<", 4.52),
    ("O=C1C(=O)N(Cc2cccc(Oc3ccccc3)c2)c2ccc(OC(F)(F)F)cc21", "<", 4.52),
]
